# target: COX-1 (Ovis aries, UniProt P05979)
# Construct: purchased Sigma-Aldrich C0733-5000UN
# Sequence (P05979 25-600): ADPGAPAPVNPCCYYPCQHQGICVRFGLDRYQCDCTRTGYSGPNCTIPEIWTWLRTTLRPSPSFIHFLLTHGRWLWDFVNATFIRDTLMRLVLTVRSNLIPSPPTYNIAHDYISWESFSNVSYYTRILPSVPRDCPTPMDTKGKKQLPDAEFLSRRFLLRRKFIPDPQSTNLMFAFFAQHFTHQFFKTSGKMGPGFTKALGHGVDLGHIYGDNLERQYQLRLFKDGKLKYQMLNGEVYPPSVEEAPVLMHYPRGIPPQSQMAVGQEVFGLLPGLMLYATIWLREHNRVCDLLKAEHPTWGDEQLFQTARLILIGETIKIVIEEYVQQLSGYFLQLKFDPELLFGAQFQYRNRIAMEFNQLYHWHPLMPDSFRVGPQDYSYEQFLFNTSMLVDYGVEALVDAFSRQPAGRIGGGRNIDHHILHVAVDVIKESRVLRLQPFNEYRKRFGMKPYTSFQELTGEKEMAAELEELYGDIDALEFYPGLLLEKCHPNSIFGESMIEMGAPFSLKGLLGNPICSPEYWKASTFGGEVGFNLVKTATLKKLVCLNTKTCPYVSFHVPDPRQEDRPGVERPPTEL
# protocol-description: In vitro COX-1 enzyme inhibitory assay
# Assay type: biochemical, sheep
# condition-context: mean ± SEM; n = 3
In this section we review reported IC50 values for a set of compounds.
Enter your answer as a number in µM; do not include the unit.

Example cases with answers are listed next.
compound: COc1ccc(C2NC(=O)NC(C(F)(F)F)=C2c2cc(-c3ccc(-c4ccccc4)cc3)on2)cc1 (stereo not shown)
quantitative-result: 66.8

compound: O=C1NC(C(F)(F)F)=C(c2cc(-c3ccco3)on2)C(c2ccco2)N1 (stereo not shown)
quantitative-result: 35.5

compound: Cc1cc(C2=C(C(F)(F)F)NC(=O)NC2c2ccccc2)no1 (stereo not shown)
quantitative-result: 239

Continue with the compound presented below.
Prompt: Quick one: IC50 of COc1ccc(C2NC(=O)NC(C(F)(F)F)=C2c2cc(-c3ccccc3)on2)cc1O (stereo not shown) ?
Response: 22.6
